- measuredTarget: T1, Human 20.1 peptide (human)
- T1 construct: synthetic peptide from the RB exon
- T1 peptide: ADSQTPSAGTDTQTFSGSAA
- procedureDetails: ELISA, well supernatant on coated peptide
measurementLabel: ELISA reading
Respond using a number only.

ELISA reading for antibody in the supernatant of B cell culture well 255D9 (antibody, V domains shown, recombinant 713 came from this well) VH: QVQLVESGGGVVQPGRSLRLSCAASGFTFSNYGMHWVRQAPGKGLEWVAVIWYDGSKKFYADSVKGRFTISRDNFEKTLYLQMNSLRAEDTAVYYCARGGGDFDYWGQGTLVTVSS VL: EIVMTQSPATLSVSPGERATLSCRASQSLSGSYLAWYQQKPGQAPRLLIYSASTRATGIPARFSGSGSGTEFTLTISSLQSEDFAVYYCQQYNNWPPLTFGGGTKVEIK is 0.1
